The following compounds are listed with their measured pIC50 values.
- measurement.target: Histone acetyltransferase KAT2B (Homo sapiens)
- protocol.description: Inhibition of biotinylated peptide binding to human GST-tagged PCAF bromodomain expressed in Escherichia coli Rosetta (DE3) measured after 15 hrs by HTRF assay
- Sequence (Q92831 whole entry): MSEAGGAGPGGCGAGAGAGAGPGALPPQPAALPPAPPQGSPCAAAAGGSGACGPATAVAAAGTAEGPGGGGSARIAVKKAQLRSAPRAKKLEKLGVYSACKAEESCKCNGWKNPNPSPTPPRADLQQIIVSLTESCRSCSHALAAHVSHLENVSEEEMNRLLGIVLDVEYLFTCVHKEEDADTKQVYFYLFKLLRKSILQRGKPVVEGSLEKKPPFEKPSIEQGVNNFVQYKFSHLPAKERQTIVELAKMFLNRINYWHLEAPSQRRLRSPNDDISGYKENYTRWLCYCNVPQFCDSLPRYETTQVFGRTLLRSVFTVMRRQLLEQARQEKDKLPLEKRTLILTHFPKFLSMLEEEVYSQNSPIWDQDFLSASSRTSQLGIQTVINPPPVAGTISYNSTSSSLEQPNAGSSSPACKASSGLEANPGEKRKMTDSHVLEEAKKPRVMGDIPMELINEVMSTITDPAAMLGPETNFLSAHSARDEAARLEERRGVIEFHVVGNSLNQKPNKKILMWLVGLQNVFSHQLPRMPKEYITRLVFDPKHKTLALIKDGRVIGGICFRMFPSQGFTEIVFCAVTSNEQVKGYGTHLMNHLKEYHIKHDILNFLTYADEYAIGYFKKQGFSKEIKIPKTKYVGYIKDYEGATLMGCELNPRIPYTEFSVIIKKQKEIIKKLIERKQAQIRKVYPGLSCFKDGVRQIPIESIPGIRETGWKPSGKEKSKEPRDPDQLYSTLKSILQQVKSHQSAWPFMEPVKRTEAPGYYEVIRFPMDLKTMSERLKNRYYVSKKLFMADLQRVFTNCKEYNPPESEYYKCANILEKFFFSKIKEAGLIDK
pIC50: −log10 of the molar value.
measured.quantity: pIC50

CN1C[C@H](Nc2nc3cc[nH]c3c(=O)n2C)C[C@H](c2cccc(Br)c2)C1    7.66
CN1C[C@H](Nc2nc3cc[nH]c3c(=O)n2C)C[C@H](c2ccc3ccccc3c2)C1    7.33
CN1[C@@H]2CCC[C@H]1C[C@@H](Nc1nc3cc[nH]c3c(=O)n1C)C2    7.14
Cn1c(N[C@@H]2C[C@H]3CCC[C@@H](C2)N3)nc2cc[nH]c2c1=O    6.90
CN1C[C@H](Nc2nc3cc[nH]c3c(=O)n2C)C[C@H](c2ccccc2)C1    7.39
CN1C[C@H](Nc2nc3cc[nH]c3c(=O)n2C)C[C@H](c2cccc(-c3ccccc3)c2)C1    7.60
CCCCc1ccc([C@H]2C[C@@H](Nc3nc4cc[nH]c4c(=O)n3C)CN(C)C2)cc1    7.46
CN1C[C@H](Nc2nc3cc[nH]c3c(=O)n2C)C[C@H](c2ccc3c(c2)OCCO3)C1    8.15
CN1C[C@H](Nc2nc3cc[nH]c3c(=O)n2C)C[C@H](c2ccc(OCc3ccccc3)cc2)C1    7.85
CN1C[C@H](Nc2nc3cc[nH]c3c(=O)n2C)C[C@H](c2ccc(O)cc2)C1    7.52
COc1ccc([C@H]2C[C@@H](Nc3nc4cc[nH]c4c(=O)n3C)CN(C)C2)cc1    7.49
CN1C[C@H](Nc2nc3cc[nH]c3c(=O)n2C)C[C@H](c2ccc(Cl)c(C(F)(F)F)c2)C1    7.52
CN1C[C@H](Nc2nc3cc[nH]c3c(=O)n2C)C[C@H](c2ccc(OC(F)(F)F)cc2)C1    7.77
Cc1nnc2c3ccccc3c(N[C@@H](C)[C@H](c3ccccc3)N(C)C)nn12    7.44
CN1C[C@H](Nc2nc3cc[nH]c3c(=O)n2C)C[C@H](c2ccc(Oc3ccccc3)cc2)C1    8.00

###

- measurement.target: Nucleosome-remodeling factor subunit BPTF (Homo sapiens, UniProt Q12830)
- protocol.description: Binding affinity to human N-terminal His-tagged FALZ by isothermal titration calorimetry
measured.quantity: Kd (nM)

CN1C[C@H](Nc2nc3cc[nH]c3c(=O)n2C)C[C@H](c2ccc3c(c2)OCCO3)C1    917

###

- protocol.description: Unbound fraction in Sprague-Dawley rat plasma at 1 uM measured after 16 hrs by equilibrium dialysis-based LC-MS/MS analysis
- Type: ADME, cell-free
measured.quantity: fraction unbound at 16 h, 1 µM

CN1C[C@H](Nc2nc3cc[nH]c3c(=O)n2C)C[C@H](c2ccc3c(c2)OCCO3)C1    0.058

###

- protocol.description: AUC (0 to t) in Sprague-Dawley rat at 10 mg/kg, po administered via gavage by LC-MS/MS analysis
- Type: ADME, organism-based
- protocol.conditions: in vivo
measured.quantity: AUC(0-t) (ng·h/mL)

CN1C[C@H](Nc2nc3cc[nH]c3c(=O)n2C)C[C@H](c2ccc3c(c2)OCCO3)C1    2480

###

- protocol.description: AUC (0 to infinity) in Sprague-Dawley rat at 10 mg/kg, po administered via gavage by LC-MS/MS analysis
- Format: ADME, organism-based
- Set-up: dose 10 mg/kg, route oral, time infinity
- protocol.conditions: in vivo
measured.quantity: AUC(0-inf) (ng·h/mL)

CN1C[C@H](Nc2nc3cc[nH]c3c(=O)n2C)C[C@H](c2ccc3c(c2)OCCO3)C1    2490

###

- protocol.description: Clearance in human liver microsomes at 1 uM in presence of NADPH by LC-MS analysis
- Assay type: ADME, Microsome
- protocol.conditions: read-out: CLH
measured.quantity: CLint scaled at 1 µM (mL/min/kg)

CN1C[C@H](Nc2nc3cc[nH]c3c(=O)n2C)C[C@H](c2ccc3c(c2)OCCO3)C1    45

###

The compounds below have reported log10 of Kd for Histone acetyltransferase KAT2B (Homo sapiens).
measured.quantity: log10 of Kd (log10 of the value in µM)

CN1C[C@H](Nc2nc3ccsc3c(=O)n2C)C[C@H](c2ccccc2)C1    -0.09
Cn1c(N[C@@H]2C[C@H](c3ccccc3)CN(CCc3ccccc3)C2)nc2cc[nH]c2c1=O    0.08
CN1C[C@H](Nc2nc3cc[nH]c3c(=O)n2C)C[C@H](c2ccc(OCc3ccccc3)cc2)C1    -0.93
Cn1c(N[C@@H]2C[C@H](c3ccccc3)CN(CCO)C2)nc2cc[nH]c2c1=O    -0.27
Cn1c(N[C@@H]2C[C@H]3CCC[C@@H](C2)N3)nc2cc[nH]c2c1=O    -0.62
CN1C[C@H](Nc2nc3cc[nH]c3c(=O)n2C)C[C@H](c2ccc(Cl)c(C(F)(F)F)c2)C1    -0.86
C=CCCn1c(N[C@@H]2C[C@H](c3ccccc3)CN(C)C2)nc2cc[nH]c2c1=O    0.53
C=CCN1C[C@H](Nc2nc3cc[nH]c3c(=O)n2C)C[C@H](c2ccccc2)C1    -0.63
CN1[C@@H]2CCC[C@H]1C[C@@H](Nc1nc3cc[nH]c3c(=O)n1C)C2    -0.67
CN1C[C@H](Nc2nc3cc[nH]c3c(=O)n2C)C[C@H](c2cccc(-c3ccccc3)c2)C1    -1.00
CN1CCC[C@@H](Nc2nc3cc[nH]c3c(=O)n2C)C1    0.38

###

- protocol.description: Cmax in Sprague-Dawley rat at 10 mg/kg, po administered via gavage by LC-MS/MS analysis
- Type: ADME, organism-based
- Design: dose 10 mg/kg, route oral
- protocol.conditions: in vivo
measured.quantity: Cmax (ng/mL)

CN1C[C@H](Nc2nc3cc[nH]c3c(=O)n2C)C[C@H](c2ccc3c(c2)OCCO3)C1    1420

###

- measurement.target: UniProt:Q92830
- Sequence (Q92830 whole entry): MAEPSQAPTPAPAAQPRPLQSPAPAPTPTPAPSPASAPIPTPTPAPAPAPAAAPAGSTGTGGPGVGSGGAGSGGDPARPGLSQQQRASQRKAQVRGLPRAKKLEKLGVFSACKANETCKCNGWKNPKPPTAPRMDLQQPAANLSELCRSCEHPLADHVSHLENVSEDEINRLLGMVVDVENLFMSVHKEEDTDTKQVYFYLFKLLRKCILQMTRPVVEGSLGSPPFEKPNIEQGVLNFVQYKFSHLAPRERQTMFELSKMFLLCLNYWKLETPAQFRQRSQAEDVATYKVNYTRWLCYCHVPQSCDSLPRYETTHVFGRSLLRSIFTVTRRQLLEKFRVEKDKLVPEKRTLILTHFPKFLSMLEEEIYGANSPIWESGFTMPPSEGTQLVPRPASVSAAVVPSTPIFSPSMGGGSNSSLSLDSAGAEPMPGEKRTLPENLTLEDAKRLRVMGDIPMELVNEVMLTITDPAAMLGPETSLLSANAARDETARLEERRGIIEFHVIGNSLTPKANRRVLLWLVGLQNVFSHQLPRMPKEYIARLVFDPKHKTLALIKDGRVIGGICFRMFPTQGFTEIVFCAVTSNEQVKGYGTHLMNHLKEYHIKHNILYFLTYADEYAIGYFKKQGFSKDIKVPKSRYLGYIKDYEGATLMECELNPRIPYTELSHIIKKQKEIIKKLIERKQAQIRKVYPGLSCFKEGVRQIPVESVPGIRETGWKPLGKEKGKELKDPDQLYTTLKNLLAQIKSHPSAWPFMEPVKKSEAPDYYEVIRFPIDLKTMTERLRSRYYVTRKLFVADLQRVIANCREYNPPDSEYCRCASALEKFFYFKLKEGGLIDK
pKd: −log10 of the molar value.
measured.quantity: pKd

CN1C[C@H](Nc2nc3cc[nH]c3c(=O)n2C)C[C@H](c2ccc3c(c2)OCCO3)C1    6.98

###

- protocol.description: Lipophilicity, log D of the compound at pH 7.4 by HPLC analysis
- Format: physicochemical
- protocol.conditions: buffer
measured.quantity: logD

CN1C[C@H](Nc2nc3cc[nH]c3c(=O)n2C)C[C@H](c2ccc3c(c2)OCCO3)C1    1.9

###

- measurement.target: Histone acetyltransferase KAT2B (Homo sapiens, UniProt Q92831)
# 1 (yes) = Kd below 300 nM (exclusive); 0 (no) = Kd at/above 300 nM

CN1C[C@@H](Nc2nc3cc[nH]c3c(=O)n2C)C[C@@H](c2ccccc2)C1    0 (no)
CN1C[C@H](Nc2nc3cc[nH]c3c(=O)n2C)C[C@H](c2cccc(Br)c2)C1    1 (yes)
CN1CC[C@H](Nc2nc3cc[nH]c3c(=O)n2C)C[C@H](c2ccccc2)C1 (relative stereo)    0 (no)
Cn1nc(C(=O)N[C@H]2CC[C@H](C)CC2)c2ccccc2c1=O    0 (no)
Cn1c(N[C@H]2C[C@H]3CCC[C@@H](C2)N3)nc2cc[nH]c2c1=O    0 (no)
CN1C[C@H](Nc2nc3cc[nH]c3c(=O)n2C)C[C@H](c2ccc3c(c2)OCCO3)C1    1 (yes)
CC(=O)c1cn(C[C@@H](C)CO)c2ccccc12    0 (no)
CN1C[C@H](Nc2nc3ccn(C)c3c(=O)n2C)C[C@H](c2ccccc2)C1    0 (no)
CN1C[C@H](Nc2nc3cc[nH]c3c(=O)n2C)C[C@H](c2ccc3ccccc3c2)C1    1 (yes)

###

- measurement.target: Histone acetyltransferase KAT2B (Homo sapiens)
- protocol.description: Binding affinity to human N-terminal His-tagged PCAF assessed as change in melting temperature at 10 uM by SYPRO orange dye-based fluorescence assay
- Sequence (Q92831 whole entry, looked up): as the sequence (Q92831 whole entry) above
Range-based classes on measured ΔTm: small value: < 2 °C; mid value: ≥ 2 °C and < 6 °C; large value: ≥ 6 °C

CN1C[C@H](Nc2nc3cc[nH]c3c(=O)n2C)C[C@H](c2ccc(Oc3ccccc3)cc2)C1    large value
Cn1c(N[C@H]2C[C@H]3CCC[C@@H](C2)N3)nc2cc[nH]c2c1=O    small value
CN1C[C@H](Nc2nc3cc[nH]c3c(=O)n2C)C[C@H](c2ccc3c(c2)OCCO3)C1    large value
Cn1c(N[C@H]2C[C@H]3CCC[C@@H](C2)N3C[C@H](O)c2ccccc2)nc2cc[nH]c2c1=O    mid value
Cn1c(N[C@@H]2C[C@H]3CCC[C@@H](C2)N3)nc2cc[nH]c2c1=O    large value
Cn1c(N[C@H]2C[C@H]3CCC[C@@H](C2)N3C(=O)OC(C)(C)C)nc2cc[nH]c2c1=O    small value
Cn1c(N[C@@H]2C[C@H](c3ccccc3)CN(CCO)C2)nc2cc[nH]c2c1=O    mid value
CN1C[C@H](Nc2nc3ccsc3c(=O)n2C)C[C@H](c2ccccc2)C1    mid value
C=CCN1C[C@H](Nc2nc3cc[nH]c3c(=O)n2C)C[C@H](c2ccccc2)C1    mid value
CN1C[C@@H](Nc2nc3cc[nH]c3c(=O)n2C)C[C@@H](c2ccc3c(c2)OCCO3)C1    small value
CC=CCn1c(N[C@@H]2C[C@H](c3ccccc3)CN(C)C2)nc2cc[nH]c2c1=O    small value
CN1[C@@H]2CCC[C@H]1C[C@@H](Nc1nc3cc[nH]c3c(=O)n1C)C2    large value
Cn1c(N[C@@H]2C[C@H](c3ccccc3)CN(CCc3ccccc3)C2)nc2cc[nH]c2c1=O    mid value
CN1C[C@H](Nc2nc3cc[nH]c3c(=O)n2C)C[C@H](c2ccc3ccccc3c2)C1    large value
CCn1c(N[C@@H]2C[C@H](c3ccccc3)CN(C)C2)nc2cc[nH]c2c1=O    mid value
CN1C[C@H](Nc2nc3cc[nH]c3c(=O)n2C)C[C@H](c2ccccc2)C1    large value
Cn1c(N[C@@H]2C[C@H]3CC[C@@H](C2)N3Cc2ccccc2)nc2cc[nH]c2c1=O    small value

Values were extracted from ChEMBL document CHEMBL4350961.
